- Test system: Punta Toro virus
- experiment: Antiviral activity against Punta Toro virus infected in african green monkey Vero cells assessed as reduction in virus-induced cytopathogenicity
- Assay type: functional, organism-based
pEC50: −log10 of the molar value.
Here the recorded pEC50 is given for each entry.

compound | tested-system | pEC50
Nc1ncnc2c1ncn2C[C@H](O)CO [(S)-DHPA] | Punta Toro virus | < 3.60

INPUT: Form field: reported pEC50 of CCCc1nc(N)[nH]c(=O)c1Br
OUTPUT: < 4.00

INPUT: Form field: reported pEC50 of Nc1nc(CCc2ccccc2)c(Br)c(=O)[nH]1
OUTPUT: < 4.00

INPUT: Form field: reported pEC50 of CCCCCc1nc(N)[nH]c(=O)c1Br
OUTPUT: < 4.00
